Target: T1, cynomolgus monkey 4-1BB (cynomolgus monkey)
T1 construct: whole, on cells; also called CHO-K1-cyno 4-1BB; CHO-K1/cyno4-1BB
Assay: FACS, CHO-K1/cyno 4-1BB cells [C]
Let's look at some binders and their measured Maximum MFI.
Respond numerically; units are MFI and should not be typed.

// known answers, use as guide
Challenge: Name the recorded Maximum MFI for Utomilumab analog (PR000483) (antibody, human IgG2, lambda, V domains shown, anti-4-1BB control antibody; also called Tab) VH: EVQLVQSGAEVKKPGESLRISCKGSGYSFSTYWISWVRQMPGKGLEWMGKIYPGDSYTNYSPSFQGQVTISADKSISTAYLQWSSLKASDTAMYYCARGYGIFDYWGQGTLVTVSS VL: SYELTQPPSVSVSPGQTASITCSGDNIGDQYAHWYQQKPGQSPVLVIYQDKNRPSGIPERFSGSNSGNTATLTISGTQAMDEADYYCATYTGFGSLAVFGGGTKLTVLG .
Response given: 55500

Challenge: Name the recorded Maximum MFI for PR001771 (antibody, human IgG1, V domains shown, anti-4-1BB HCAb, human IgG1 Fc) VH: EVQLLESGGGLVQPGGSLRLSCAASGFTFSNYAMTWVRQPPGKGLEWVSSISGSGGSTYYADSVKGRFTISRDNSKNTLYLQMNSLRAEDTAVYYCAKEGTGTTSDYYYNVDVWGQGTTVTVSS .
Response given: 65700

Challenge: Name the recorded Maximum MFI for PR001774 (antibody, human IgG1, V domains shown, anti-4-1BB HCAb, human IgG1 Fc) VH: EVQLVESGGGLVQPGGSLRLSCAASGFTFSSFAMTWVRQAPEKGLEWVSTISGSGDTTYYADSVKGRFTISRDSSKNTLYLQMNSLRAEDSAVYFCAKEATAMASDYYYGVDVWGQGTTVTVSS .
Response given: 48000

Kindly consider the entry below.
Challenge: Name the recorded Maximum MFI for PR001768 (antibody, human IgG1, V domains shown, anti-4-1BB HCAb, human IgG1 Fc) VH: EVQLLESGGGLVQPGGSLRLSCAASGFTFSNYAMTWVRQAPGKGLEWVSSISGSGDSTYYADSVKGRFTISRDNSKNTLYLQMNSLRAEDTAVYYCAKEGTGTTSDYYYNVDVWGQGTTVTVSS .
Response given: 62200
